Measured values drawn from patent US20230105029A1 for this set.

Inhibition on IL13 induced STAT6 phosphorylation (IC50, nM) overview
Target: human IL4Rα expressed on HEK293T-IL4Rα-STAT6-STAT6LUC-LB2 cells (human, UniProt P24394 26-825)
Test: cell-based or functional assay
Reported Property: Inhibition on IL13 induced STAT6 phosphorylation (IC50, nM)

binder="chimeric antibody C2C1A1A1 (antibody, human IgG4 S228P, kappa, V domains shown, Mouse variable domains on human IgG4/kappa; also called Chimeric C2C1A1A1; chC2C1A1A1) VH: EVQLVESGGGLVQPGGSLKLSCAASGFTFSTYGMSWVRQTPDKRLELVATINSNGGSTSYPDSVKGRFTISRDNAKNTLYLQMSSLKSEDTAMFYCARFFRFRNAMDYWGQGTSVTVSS VL: DIQMTQSPASLSASVGETVTITCRTSENIYSYLAWYQQKQGKSPQFLVYNAKTLAEGVPSRFSGSGSGTQFSLNINSLQSEDFGSYYCQHYYGPPTWTFGGGTKLEIKR" display_unit=nM data_value=0.39
binder="huC2C1A1A1-V14 (antibody, human IgG4 S228P, kappa, V domains shown, Humanized, human IgG4/kappa) VH: EVQLVESGGGLVQPGGSLRLSCAASGFTFSTYGMSWVRQAPGKGLVWVATINSNGGSTSYPDSVKGRFTISRDNAKNTLYLQMNSLRAEDTAVYYCARFFRFRNAMDYWGQGTLVTVSS VL: DIQMTQSPSSLSASVGQRVTITCRTSENIYSYLAWYQQKQGKPPRFLIYNAKTLAEGVPSRFSGSGSGTEFTLTITSLQAEDFGVYYCQHYYGPPTWTFGPGTKLEIKR" display_unit=nM data_value=0.73
binder="huB8G11F2B7G5E8-V14 (antibody, human IgG4 S228P, kappa, V domains shown, Humanized, human IgG4/kappa; also called huBSG11F2B7G5E8-V14) VH: EVQLVQSGAEVKKPGATVKISCKVSGFNIKDTYMHWVKQAPGKGLEWMGRIDPTNGYTIYASKFQGKATITADTSSNTAYMELSSLRSEDTAVYHCVSRRPWFAYWGQGTLVTVSS VL: DIVMTQTPLSLSVTPGQPASISCRSSQSIVHSNGNTYLEWYLQKPGQSPQLLIYKVTNRFSGVPDRFSGSGSGTDFTLKISRVEAEDVGVYYCFQGSHVPYTFGQGTKLEIKR" display_unit=nM data_value=0.66
